As shown below, each of these binders has a reported Kd value.
# assayed_system: T1, recombinant human IL4Rα-his protein (in house made) (human, UniProt P24394 26-232, limits assumed)
# T1 construct: also called Human IL4Ra-his
# protocol_description: SPR (Biacore), antibody captured, IL4Rα-his flowed
The response must be a number in nM with no trailing unit.

Consider the worked cases shown below.
binder: chimeric antibody C2C1A1A1 (antibody, human IgG4 S228P, kappa, V domains shown, Mouse variable domains on human IgG4/kappa; also called Chimeric C2C1A1A1; chC2C1A1A1) VH: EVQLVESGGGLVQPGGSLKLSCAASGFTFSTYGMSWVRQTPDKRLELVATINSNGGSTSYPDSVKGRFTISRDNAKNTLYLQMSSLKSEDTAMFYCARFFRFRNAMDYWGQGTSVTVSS VL: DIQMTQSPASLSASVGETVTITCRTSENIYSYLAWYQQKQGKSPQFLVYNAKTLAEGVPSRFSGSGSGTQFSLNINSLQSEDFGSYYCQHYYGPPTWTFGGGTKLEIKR
Kd [nM]: 0.388
--
binder: chimeric antibody B8G11F2B7G5E8 (antibody, human IgG4 S228P, kappa, V domains shown, Mouse variable domains on human IgG4/kappa; also called Chimeric B8G11F2B7G5E8; chB8G11F2B7G5E8) VH: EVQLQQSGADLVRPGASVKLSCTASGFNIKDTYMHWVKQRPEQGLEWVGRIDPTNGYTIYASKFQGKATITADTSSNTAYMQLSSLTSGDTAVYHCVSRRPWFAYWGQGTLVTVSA VL: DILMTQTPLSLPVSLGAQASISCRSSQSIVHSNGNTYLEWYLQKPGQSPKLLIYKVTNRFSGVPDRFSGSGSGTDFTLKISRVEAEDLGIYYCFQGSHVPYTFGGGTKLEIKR
Kd [nM]: 3.23

Okay, next one:
Suppose we examine the binder huB8G11F2B7G5E8-V4 (antibody, human IgG4 S228P, kappa, V domains shown, Humanized, human IgG4/kappa; also called huBSG11F2B7G5E8-V4) VH: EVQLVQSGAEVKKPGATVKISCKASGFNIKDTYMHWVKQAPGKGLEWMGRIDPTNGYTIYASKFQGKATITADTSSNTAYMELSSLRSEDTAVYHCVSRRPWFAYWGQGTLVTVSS VL: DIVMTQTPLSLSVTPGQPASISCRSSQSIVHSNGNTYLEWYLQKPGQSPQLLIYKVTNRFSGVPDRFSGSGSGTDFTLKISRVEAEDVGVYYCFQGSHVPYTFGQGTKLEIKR ; what Kd value has been reported? 5.5

This collection of values is drawn from patent US20230105029A1.
